- ASSAY: Plasma and CSF pharmacokinetics, noncompartmental analysis, Study ALZ1008
- Format: in vivo, human
- CONDITIONS: human, plasma, oral; Japanese preclinical AD; 10 mg q.d.; read-out: Plasma Cmax, Day 28, Mean (SD)
READOUT: Cmax (µg/mL)
Kindly answer with a numeric value in µg/mL, unit omitted.

Short answer for C[C@@]1(c2cc(NC(=O)c3ccc(C#N)cn3)ccc2F)C=CSC(N)=N1 : Cmax was 0.107

###

- ASSAY: Plasma and CSF pharmacokinetics, population PK modeling, Study ALZ1005
- Type: in vivo, human
- CONDITIONS: human, plasma, oral; Caucasian early AD; 50 mg q.d.; population PK modeling; read-out: Plasma Cmax, Day 28, Mean (SD)
READOUT: Cmax (ng/mL)
// note: answer is a bare numeric in ng/mL

Lookup result for C[C@@]1(c2cc(NC(=O)c3ccc(C#N)cn3)ccc2F)C=CSC(N)=N1 [atabecestat] ; measured Cmax: 550

###

- ASSAY: Plasma and CSF pharmacokinetics, population PK modeling, Study ALZ1005
- Type: in vivo, human
- CONDITIONS: human, plasma, oral; Caucasian early AD; 50 mg q.d.; population PK modeling; read-out: Plasma AUCτ, Day 28, Mean (SD)
READOUT: AUC (ng·h/mL)
Numbers only here, please. The scale is ng·h/mL.

Item: C[C@@]1(c2cc(NC(=O)c3ccc(C#N)cn3)ccc2F)C=CSC(N)=N1 [atabecestat] | AUC: 6200

###

- ASSAY: Plasma and CSF pharmacokinetics, noncompartmental analysis, Study ALZ1008
- Assay type: in vivo, human
- CONDITIONS: human, CSF / free plasma, oral, 50 mg, Japanese preclinical AD; 50 mg q.d.; observed plasma concentration, free fraction 6%; read-out: Ratio C28d (CSF)/free plasma, Mean (SD)
READOUT: Kp at 28 day
Just the number, please.

Short answer for C[C@@]1(c2cc(NC(=O)c3ccc(C#N)cn3)ccc2F)C=CSC(N)=N1 [atabecestat] : Kp at 28 day was 0.83

###

- ASSAY: Plasma and CSF pharmacokinetics, population PK modeling, Study ALZ1005
- Type: in vivo, human
- CONDITIONS: human, CSF / free plasma, oral; Caucasian early AD; 10 mg q.d.; simulated plasma concentration, free fraction 6%; read-out: Ratio C28d (CSF)/free plasma, Mean (SD)
READOUT: Kp at 28 day
No unit in the answer, please; the number alone is enough.

Kp at 28 day for C[C@@]1(c2cc(NC(=O)c3ccc(C#N)cn3)ccc2F)C=CSC(N)=N1 [atabecestat] is 0.789

###

- ASSAY: Plasma and CSF pharmacokinetics, population PK modeling, Study ALZ1005
- Type: in vivo, human
- CONDITIONS: human, CSF, oral; Caucasian early AD; 50 mg q.d.; read-out: C28d, CSF concentration at Day 28, Mean (SD)
READOUT: concentration at 28 day (ng/mL)
Express the result in ng/mL but write the number alone.

Query C[C@@]1(c2cc(NC(=O)c3ccc(C#N)cn3)ccc2F)C=CSC(N)=N1 yields concentration at 28 day of 15.1

###

- ASSAY: Plasma and CSF pharmacokinetics, noncompartmental analysis, Study ALZ1008
- Type: in vivo, human
- CONDITIONS: human, CSF, oral; Japanese preclinical AD; 50 mg q.d.; read-out: C28d, CSF concentration at Day 28, Mean (SD)
READOUT: concentration at 28 day (ng/mL)
Please reply with the bare figure in ng/mL and do not write the unit itself.

// concentration at 28 day lookup, compound = C[C@@]1(c2cc(NC(=O)c3ccc(C#N)cn3)ccc2F)C=CSC(N)=N1 [atabecestat] , result: 19.1

###

- ASSAY: Plasma and CSF pharmacokinetics, population PK modeling, Study ALZ1005
- Assay type: in vivo, human
- CONDITIONS: human, plasma, oral; Caucasian early AD; 10 mg q.d.; population PK modeling; read-out: Plasma AUCτ, Day 28, Mean (SD)
READOUT: AUC (ng·h/mL)
Write it as a number; the unit ng·h/mL goes unstated.

Measured AUC of C[C@@]1(c2cc(NC(=O)c3ccc(C#N)cn3)ccc2F)C=CSC(N)=N1 : 1230
